Every entry's value here was drawn from PubChem BioAssay (NCI).

- Tested on: SNB-75 CNS
- TEST_PROTOCOL: NCI tumour cell line growth inhibition, 48 h
Provide the reported TGI of each item.

## Input Look at this compound and give its reported TGI. `C/C(=N\NC(=S)N1CCN(C)CC1)c1nc2ncccc2[nH]1`
## Output > 100 µM

## Input Also need NC(=O)C1Cc2cc3c(cc21)OCO3 (stereo unspecified) , thanks.
## Output > 100 µM

## Input Also need CN1C(=O)C(CC(=O)O)NC1=S (stereo unspecified) , thanks.
## Output > 100 µM

## Input Also need `C#C[C@]1(O)CC[C@H]2[C@@H]3CCC4=C/C(=N/NC(=O)c5cccc6cc7ccccc7nc56)CC[C@@H]4[C@H]3CC[C@@]21CC` , thanks.
## Output > 100 µM

## Input Also need CN1CC[C@]2(C)c3cc(O)ccc3CC3CCCC1C32C (stereo partly specified) , thanks.
## Output > 100 µM

## Input Also need COC(=O)[C@]12CC=C3O[C@@H]4OC5(CCCCC5)O[C@@H]4C3[C@@H]1C(=O)CCC2=O (stereo partly specified) , thanks.
## Output > 100 µM

###

- Tested on: HCT-15 colon
- TEST_PROTOCOL: NCI tumour cell line growth inhibition, 48 h
Provide the reported TGI of each item.
Respond numerically; units are µM and should not be typed.

## Input Look at this molecule and give its reported TGI. OC(c1cc(-c2ccc(Cl)cc2)nc2ccccc12)C1CCCCN1 (stereo not drawn)
## Output 6.11

## Input Also need `Cc1[nH]c(=O)n2c(C)nnc2c1C(=O)Nc1cc(Cl)cc(Cl)c1` , thanks.
## Output 78.7

## Input Also need `CCCCN(Cc1ccccc1)C(=NC#N)N(Cc1ccccc1)Cc1ccccc1` , thanks.
## Output 77.2

## Input Also need `Cc1cc(NCc2cc(Nc3ccnc4cc(Cl)ccc34)ccc2F)nc(N2CCN(C)CC2)n1` , thanks.
## Output 3.45

###

Provide the reported TGI of each item.
- Tested on: HT29 colon
- TEST_PROTOCOL: NCI tumour cell line growth inhibition, 48 h

## Input Look at this compound and give its reported TGI. `C#C[C@]1(O)CC[C@H]2[C@@H]3CCC4=C/C(=N/NC(=O)c5cccc6cc7ccccc7nc56)CC[C@@H]4[C@H]3CC[C@@]21CC`
## Output > 100 µM

## Input Also need `COc1c(Br)cc(/C=C(\C#N)c2cccnc2)cc1Br` , thanks.
## Output > 100 µM

## Input Also need `Nc1nc2n[nH]nc2c(=O)[nH]1` , thanks.
## Output > 100 µM

###

- System: MCF7 breast
- TEST_PROTOCOL: NCI tumour cell line growth inhibition, 48 h
READOUT_TYPE: TGI

## Input Look at this compound and give its reported TGI. COC(=O)C(Cc1ccc(Oc2cc(CC(NC(=O)c3ccccc3)C(=O)OC)ccc2OC)cc1)NC(=O)c1ccccc1 (stereo unspecified)
## Output > 100 µM

## Input Also need Cc1ccc2c(c1)CC1(Cc3c(C)cccc3C1=O)C2=O (stereo unspecified) , thanks.
## Output > 100 µM

## Input Also need `C/C(=N\NC(=O)c1ccncc1)c1ccccc1F` , thanks.
## Output > 10 µM

## Input Also need O=C(c1ccccc1)N1OCCC1Nc1ccc(Br)cc1 (stereo unspecified) , thanks.
## Output > 10 µM

## Input Also need O=C1CCCC1C(O)(C(F)(F)F)C(F)(F)F (stereo unspecified) , thanks.
## Output > 100 µM

## Input Also need Cc1ccc(C2SC(N)=Nc3c2c(C)nn3C(=O)c2ccccc2O)cc1 (stereo unspecified) , thanks.
## Output > 10 µM

###

- Tested on: RPMI-8226 leukemia
- TEST_PROTOCOL: NCI tumour cell line growth inhibition, 48 h
Provide the reported TGI of each item.

## Input Look at this molecule and give its reported TGI. COc1cc2c(cc1OC)[C@H]1C(COC(=O)c3ccccc3)CSC(=Nc3ccccc3)N1CC2 (stereo partly specified)
## Output > 100 µM

## Input Also need CC(=O)N1C(NN(C)C)CCN1c1ccccc1 (stereo unspecified) , thanks.
## Output > 10 µM

## Input Also need `C/C(=N\NC(=S)N1CCN(C)CC1)c1nc2ncccc2[nH]1` , thanks.
## Output > 100 µM

## Input Also need `NCCN.NCCN.O=C([O-])CCl.O=C([O-])CCl.[Co+3].[O-][Cl+3]([O-])([O-])[O-]` , thanks.
## Output > 100 µM

## Input Also need CC(=O)C(CN(Cc1ccccc1)Cc1ccccc1)C(c1ccccc1)c1c(O)c2ccccc2oc1=O (stereo unspecified) , thanks.
## Output > 100 µM

## Input Also need CN1CC[C@]2(C)c3cc(O)ccc3CC3CCCC1C32C (stereo partly specified) , thanks.
## Output > 100 µM

###

Provide the reported TGI of each item.
- System: IGROV1 ovarian
- TEST_PROTOCOL: NCI tumour cell line growth inhibition, 48 h

## Input Look at this compound and give its reported TGI. CCCCCCCCCCCCOC1C(C(COC2OC(C3COC(C)(C)O3)C3OC(C)(C)OC23)NC(=O)NS(=O)(=O)c2ccccc2)OC2OC(C)(C)OC21 (configuration not stated)
## Output 11.2 µM

## Input Also need `Oc1ccccc1CNCC12CC3CC(CC(C3)C1)C2` , thanks.
## Output > 100 µM

## Input Also need `O=C(Nc1ccc2[nH]c(=S)sc2c1)Nc1ccccc1F` , thanks.
## Output > 100 µM

## Input Also need COC(=O)CCC1CCC(c2cc(F)ccc2F)(S(=O)(=O)c2ccc(Cl)cc2)CC1 (configuration not stated) , thanks.
## Output > 100 µM

## Input Also need `Nc1ccc(CCSSCCc2ccc(N)cc2)cc1` , thanks.
## Output > 100 µM

## Input Also need `COc1ccc(NC(=O)/C(=N/NC(N)=S)C2C(=O)NC(=S)NC2=O)c(OC)c1` , thanks.
## Output > 100 µM

## Input Also need COC(=O)[C@]12CC=C3O[C@@H]4OC5(CCCCC5)O[C@@H]4C3[C@@H]1C(=O)CCC2=O (some centres not stated) , thanks.
## Output > 100 µM

###

- Test system: PC-3 prostate
- TEST_PROTOCOL: NCI tumour cell line growth inhibition, 48 h
READOUT_TYPE: TGI

## Input Test system PC-3 prostate; read-out TGI; what value for `O=C(O)c1cc(-c2ccncc2)nc2ccccc12` ?
## Output > 100 µM

## Input Also need C[N+]1(Cc2ccc(Cl)c(Cl)c2)CCCC1C1CCCN(Cc2ccc(Cl)c(Cl)c2)C1 (stereo not drawn) , thanks.
## Output > 100 µM

## Input Also need `CC1(C)C/C(=N/O)c2c(nc3ccc4ccccc4c3c2-c2ccc(Cl)cc2)C1` , thanks.
## Output > 100 µM

###

Provide the reported TGI of each item.
- Test system: NCI/ADR-RES ovarian
- TEST_PROTOCOL: NCI tumour cell line growth inhibition, 48 h

## Input Look at this molecule and give its reported TGI. CC(C)COCC(CN(Cc1ccccc1)c1ccccc1)N1CCCC1 (stereo unspecified)
## Output 14.4 µM

## Input Also need `CC[C@@]1(OC(=O)CN)C(=O)OCc2c1cc1n(c2=O)Cc2cc3c(N)cccc3nc2-1` , thanks.
## Output 0.258 µM

## Input Also need `C=C1C(=O)O[C@H]2[C@H]1CCC(/C=N/c1ncc(Br)cc1N)=C\CC[C@@]1(C)O[C@@H]21` , thanks.
## Output 21.9 µM

## Input Also need CC(C)c1c(O)ccc2c1CCC1C(C)(C)CCCC21C (stereo unspecified) , thanks.
## Output 31.2 µM

## Input Also need O=C1C=CC2(O)OCCN(CCO)C2=C1 (stereo unspecified) (tested in a mixture with another compound) , thanks.
## Output > 100 µM

## Input Also need `O=[N+]([O-])c1cc2c(c([N+](=O)[O-])c1)NCc1ccccc1O2` , thanks.
## Output > 100 µM

## Input Also need Nc1ncnc2c1ncn2C1OC(CO)C(O)C(O)C1O (stereo unspecified) , thanks.
## Output > 100 µM

## Input Also need `Cc1c(Cl)c(S(N)(=O)=O)cc2c1NC=NS2(=O)=O` , thanks.
## Output > 100 µM

## Input Also need NC1CC(Cl)c2c(Cl)sc(Cl)c21 (stereo unspecified) , thanks.
## Output > 100 µM

## Input Also need `S=C1CSc2c(ccc3ccccc23)N1` , thanks.
## Output > 100 µM

## Input Also need `Nc1ccc(S(=O)(=O)Nc2ccc(Nc3c4ccccc4nc4ccccc34)cc2)cc1` , thanks.
## Output 19.8 µM

## Input Also need `C=CCN1C(=O)/C(=C/c2ccc(C)cc2)NC1=S` , thanks.
## Output > 100 µM

## Input Also need `CCN(C(C)=O)c1cnc(/C=N/NC(N)=S)c2ccccc12` , thanks.
## Output 58.6 µM

## Input Also need `COC(=O)[C@@H](NC(=O)N(CCC#N)CCCN(C(=O)N[C@H](Cc1ccccc1)C(=O)OC)c1ccccc1)C(C)C` , thanks.
## Output > 100 µM

## Input Also need CN1C(=O)C(CC(=O)O)NC1=S (stereo unspecified) , thanks.
## Output > 100 µM

## Input Also need `CCOC(=O)/C(=C\c1ccc(C#N)cc1)C(C)=O` , thanks.
## Output > 100 µM

## Input Also need `O=c1oc2cc(N=Cc3ccc4c(c3)OCO4)ccc2c2ccccc12` , thanks.
## Output > 100 µM

## Input Also need `Oc1ccc(Cc2nccc3cc(O)c(O)cc23)cc1O` , thanks.
## Output > 100 µM

## Input Also need CN1C(=O)C(c2c[nH]c3ccccc23)N(C)C(=O)C1c1c[nH]c2ccccc12 (stereo unspecified) , thanks.
## Output > 100 µM

## Input Also need `COc1cc(-n2cc(-c3ccc(Cl)cc3)nc2SCc2cccc(C#N)c2)cc(OC)c1OC` , thanks.
## Output > 100 µM

## Input Also need COC(=O)CCC1CCC(c2cc(F)ccc2F)(S(=O)(=O)c2ccc(Cl)cc2)CC1 (stereo unspecified) , thanks.
## Output > 100 µM
